Just for reference, paper PMC7519074 is where these values come from.

- ASSAY REMARKS: Plasma pharmacokinetic profile in mice after ip dosing
- Format: in vivo, C57BL/6J mice
- CONDITION SUMMARY: male, C57BL/6, mouse, ip, 100 ug/kg, 100 μg/kg ip, mice n = 6
- Method: The pharmacokinetic study was approved by The Institutional Animal Care and Use Committee of Ono Pharmaceutical Co., Ltd. and was performed in accordance with the ethics criteria contained in the animal welfare bylaws of the Committee. The pharmacokinetics of 3 were studied following intraperitoneal administration. […] Plasma concentration–time data were analyzed by noncompartmental methods.
ENDPOINT LABEL: AUC (ng·h/mL)
Numbers only; they are read as ng·h/mL.

IN: Item under review: CCCCCCCCCCCCCC[C@@H](O)[C@@H](O)[C@H](CO[C@H]1O[C@H](CO)[C@H](O)[C@H](O)[C@H]1O)NC(=O)CCCCCCCCCCCNC(=O)c1ccccc1 . Reported AUC?
OUT: 466

* * *

- TGT: mCD1d-Fc fusion protein (Mus musculus, UniProt P11609)
- Construct: Ig (mouse immunoglobulin fusion partner); purchased BD Biosciences
- ASSAY REMARKS: Antigen presenting cell (APC)-free assay for lipid binding to mCD1d-Fc; IL-2 release by 2E10 NKT hybridoma cells
- Assay type: cell-based
- Set-up: unit not given here
- CONDITION SUMMARY: ligand 10 nM; mean ± SEM; Fig. 3a, b
ENDPOINT LABEL: IL-2 production (exact values of IL-2)

Field: example entries. Status: answers known.
MOLECULE: CCCCCCCCCCCCCC[C@@H](O)[C@@H](O)[C@H](CO[C@H]1O[C@H](CO)[C@H](O)[C@H](O)[C@H]1O)NC(=O)CCCCCCCCCCCNC(=O)NCCCCCCCCCCC [5a]
IL-2 production (exact values of IL-2): 85
--
MOLECULE: CCCCCCCCCCCCCC[C@@H](O)[C@@H](O)[C@H](CO[C@H]1O[C@H](CO)[C@H](O)[C@H](O)[C@H]1O)NC(=O)CCCCCCCCCCCCC(=O)CCCCCC [7b]
IL-2 production (exact values of IL-2): 600
--
MOLECULE: CCCCCCCCCCCCCC[C@@H](O)[C@@H](O)[C@H](CO[C@H]1O[C@H](CO)[C@H](O)[C@H](O)[C@H]1O)NC(=O)CCCCCCCCCCCNC(=O)CCCCCC [1b]
IL-2 production (exact values of IL-2): 662

(1) CCCCCCCCCCCCCC[C@@H](O)[C@@H](O)[C@H](CO[C@H]1O[C@H](CO)[C@H](O)[C@H](O)[C@H]1O)NC(=O)CCCCCCCCCCCN(C)C(=O)CCCCCC [4b]
(2) CCCCCCCCCCCCCC[C@@H](O)[C@@H](O)[C@H](CO[C@H]1O[C@H](CO)[C@H](O)[C@H](O)[C@H]1O)NC(=O)CCCCCCCCCCCNC(=O)NCCCCC [5b]
IN: Quick check, higher IL-2 production (exact values of IL-2) between 1 and 2 ? Which one? Tell me its label.
OUT: 1
(1: 546, 2: 376)

* * *

- ASSAY REMARKS: Plasma pharmacokinetic profile in mice after ip dosing
- Assay type: in vivo, C57BL/6J mice
- CONDITION SUMMARY: male, C57BL/6, mouse, 100 ug/kg, 100 μg/kg ip, mice n = 6
ENDPOINT LABEL: Tmax (h)
Numbers only; they are read as h.

IN: Item under review: CCCCCCCCCCCCCC[C@@H](O)[C@@H](O)[C@H](CO[C@H]1O[C@H](CO)[C@H](O)[C@H](O)[C@H]1O)NC(=O)CCCCCCCCCCCNC(=O)c1ccccc1 . Reported Tmax?
OUT: 1

* * *

- ASSAY REMARKS: Metabolic stability, rat liver microsome
- Assay type: in vitro ADME

GIVEN SMILES: CCCCCCCCCCCCCC[C@@H](O)[C@@H](O)[C@H](CO[C@H]1O[C@H](CO)[C@H](O)[C@H](O)[C@H]1O)NC(=O)CCCCCCCCCCCNCCCCCCCCCCCCC
metabolic stability in words: good metabolic stability
//
GIVEN SMILES: CCCCCCCCCCCCCC[C@@H](O)[C@@H](O)[C@H](CO[C@H]1O[C@H](CO)[C@H](O)[C@H](O)[C@H]1O)NC(=O)CCCCCCCCCCCNC(=O)CCCCCC
metabolic stability in words: good metabolic stability
//
GIVEN SMILES: CCCCCCCCCCCCCC[C@@H](O)[C@@H](O)[C@H](CO[C@H]1O[C@H](CO)[C@H](O)[C@H](O)[C@H]1O)NC(=O)CCCCCCCCCCCNC(=O)CCCCCCCCCCCC
metabolic stability in words: good metabolic stability

* * *

- ASSAY REMARKS: Plasma pharmacokinetic profile in mice after ip dosing
- Type: in vivo, C57BL/6J mice
- CONDITION SUMMARY: male, C57BL/6, mouse, 100 ug/kg, 100 μg/kg ip, mice n = 6
ENDPOINT LABEL: half-life (min)
Numbers only; they are read as min.

IN: Item under review: CCCCCCCCCCCCCC[C@@H](O)[C@@H](O)[C@H](CO[C@H]1O[C@H](CO)[C@H](O)[C@H](O)[C@H]1O)NC(=O)CCCCCCCCCCCNC(=O)c1ccccc1 [compound 3] . Reported half-life?
OUT: 312

* * *

- Tested on: mouse splenocytes
- ASSAY REMARKS: Cytokine secretion assay using mouse splenocyte
- Format: cell-based, C57BL/6 mice
- Set-up: unit not given here
- CONDITION SUMMARY: 1 nM ligand, 48 h, Fig. S2c
Below, each of the compounds is paired with its reported IL-17A production value.

COMPOUND: CCCCCCCCCCCCCCCCCCCCCCCCCC(=O)N[C@@H](CO[C@H]1O[C@H](CO)[C@H](O)[C@H](O)[C@H]1O)[C@H](O)[C@H](O)CCCCCCCCCCCCCC [α-GalCer, α-galactosyl ceramide, reference compound]
TGT: mouse splenocytes
VAL: 2,258 ± 242

IN: Item under review: CCCCCCCCCCCCCC[C@@H](O)[C@@H](O)[C@H](CO[C@H]1O[C@H](CO)[C@H](O)[C@H](O)[C@H]1O)NC(=O)CCCCCCCCCCCNC(=O)CCCCCCCCCCCC . Reported IL-17A production?
OUT: 1,276 ± 60

IN: Item under review: CCCCCCCCCCCCCC[C@@H](O)[C@@H](O)[C@H](CO[C@H]1O[C@H](CO)[C@H](O)[C@H](O)[C@H]1O)NC(=O)CCCCCCCCCCCNC(=O)CCCCCCCNC(=O)CC . Reported IL-17A production?
OUT: 5,179 ± 154

* * *

- TGT: mCD1d-Fc fusion protein (Mus musculus)
- Construct: Ig (mouse immunoglobulin fusion partner); purchased BD Biosciences
- ASSAY REMARKS: Antigen presenting cell (APC)-free assay for lipid binding to mCD1d-Fc; IL-2 release by 2E10 NKT hybridoma cells
- Format: cell-based
- Parameters: unit not given here
- CONDITION SUMMARY: ligand 10 nM; mean ± SEM; Fig. 3a, b
ENDPOINT LABEL: IL-2 production (exact values of IL-2)

Field: example entries. Status: answers known.
COMPOUND: CCCCCCCCCCCCCC[C@@H](O)[C@@H](O)[C@H](CO[C@H]1O[C@H](CO)[C@H](O)[C@H](O)[C@H]1O)NC(=O)CCCCCCCCCCCN(C)C(=O)CCCCCCCCCCCC [4a]
VAL: 749
//
COMPOUND: CCCCCCCCCCCCCC[C@@H](O)[C@@H](O)[C@H](CO[C@H]1O[C@H](CO)[C@H](O)[C@H](O)[C@H]1O)NC(=O)CCCCCCCCCCCNC(=O)CCCCCCCCCCCC [1a]
VAL: 177
//
COMPOUND: CCCCCCCCCCCCCC[C@@H](O)[C@@H](O)[C@H](CO[C@H]1O[C@H](CO)[C@H](O)[C@H](O)[C@H]1O)NC(=O)CCCCCCCCCCCNCCCCCCCCCCCCC [6a]
VAL: 323

(A) CCCCCCCCCCCCCC[C@@H](O)[C@@H](O)[C@H](CO[C@H]1O[C@H](CO)[C@H](O)[C@H](O)[C@H]1O)NC(=O)CCCCCCCCCCCCC(=O)CCCCCCCCCCCC [7a]
(B) CCCCCCCCCCCCCC[C@@H](O)[C@@H](O)[C@H](CO[C@H]1O[C@H](CO)[C@H](O)[C@H](O)[C@H]1O)NC(=O)CCCCCCCCCCCNCCCCCCC [6b]
IN: Quick check, higher IL-2 production (exact values of IL-2) between A and B ? Which one? Tell me its label.
OUT: A
(A: 424, B: 74)
